Biological target: UniProt Q9NZQ7
Sequence (Q9NZQ7 19-238): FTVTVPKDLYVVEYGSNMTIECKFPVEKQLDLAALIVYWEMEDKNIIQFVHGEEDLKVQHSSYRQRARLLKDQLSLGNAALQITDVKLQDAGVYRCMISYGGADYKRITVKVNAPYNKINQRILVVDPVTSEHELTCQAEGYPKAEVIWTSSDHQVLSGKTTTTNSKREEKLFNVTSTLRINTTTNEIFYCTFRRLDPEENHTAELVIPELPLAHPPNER
Sequence (Q9NZQ7 19-238): as above
Test: PD-L1/PD-L1 dimerization biochemical protein-protein interaction assay (ALPHA)
Type: binding
Settings: 0.5 nM His tagged PD-L1 and 0.5 nM FLAG tagged PD-L1, Table 4A, read-out: AC50 PDL1 Dimer 1 nM
Measured attribute: AC50 (nM)

Worked cases, AC50 given:
COc1nc(-c2cccc(-c3cccc4c3CC[C@@H]4Nc3nc(OC)c(CN[C@@H](C)C(=O)N(C)C)nc3C(F)(F)F)c2Cl)ccc1CNC[C@@H]1CCC(=O)N1 ... 6.28
COc1nc(-c2cccc(-c3cccc4c3CC[C@@H]4Nc3nc(OC)c(CNCCC(=O)O)cc3C(F)(F)F)c2Cl)ccc1CN[C@H]1C[C@](C)(O)C1 ... 81.8
COc1nc(-c2cccc(-c3cccc4c3CC[C@@H]4Nc3nc(OC)c(CNCC(=O)O)nc3C(F)(F)F)c2Cl)ccc1CNC[C@@H]1CC(O)C(=O)N1 (stereo partly shown) ... 7.18
COc1nc(-c2cccc(-c3cccc4c3CC[C@@H]4Nc3nc(OC)c(CN[C@@H](C)C(=O)O)nc3C(F)(F)F)c2Cl)ccc1CNC[C@H]1C[C@](C)(O)C1 ... 29.2
COc1cc(N[C@H]2CCc3c(-c4cccc(-c5ccc(CNC[C@@H]6CCC(=O)N6)c(OC)n5)c4Cl)cccc32)c(C(F)(F)F)cc1CN1CC[C@H](C(=O)O)C1 ... 16.7

P. COc1nc(N[C@H]2CCc3c(-c4cccc(-c5ccc(CNC[C@@H]6CCC(=O)N6)c(OCC#N)n5)c4Cl)cccc32)c(C(F)(F)F)nc1CN1CC[C@@](C)(C(=O)O)C1
Q. COc1nc(-c2cccc(-c3cccc4c3CC[C@@H]4Nc3nc(OC)c(CNCCC(=O)O)nc3C(F)(F)F)c2Cl)ccc1CN[C@H]1C[C@](C)(O)C1
R. COc1nc(-c2cccc(-c3cccc4c3CC[C@@H]4Nc3nc(OC)c(CN[C@H](C(=O)O)C4CC4)nc3C(F)(F)F)c2Cl)ccc1CN[C@H]1C[C@](C)(O)C1
S. COC[C@H](NCc1cc(C(F)(F)F)c(N[C@H]2CCc3c(-c4cccc(-c5ccc(CN[C@H]6C[C@](C)(O)C6)c(OC)n5)c4Cl)cccc32)nc1OC)C(=O)O
Rank descending by AC50. # answer = labels listed in requested order
Q, S, R, P

I. COc1nc(-c2cccc(-c3cccc4c3CC[C@@H]4Nc3nc(OC)c(CN[C@@H](C)C(=O)O)nc3C(F)(F)F)c2Cl)ccc1CN1CC(O)C1
II. COc1nc(-c2cccc(-c3cccc4c3CC[C@@H]4Nc3nc(OC)c(CN4CC[C@@H](C(=O)O)C4)cc3Cl)c2Cl)ccc1CNC[C@@H]1CCC(=O)N1
Input pair: I , II . Output: entry with lower AC50. In your reply, give the label of the chosen option.
I
(I: 13.4 nM, II: 79.7 nM)

I. COc1nc(-c2cccc(-c3cccc4c3CC[C@@H]4Nc3nc(OC)c(CN4CC(C(=O)O)C4)cc3C(F)(F)F)c2Cl)ccc1CNC[C@@H]1CCC(=O)N1
II. COc1nc(-c2cccc(-c3cccc4c3CC[C@@H]4Nc3nc(OC)c(CN4CC5(C(=O)O)CCC4CC5)cc3Cl)c2Cl)ccc1CNC[C@@H]1CCC(=O)N1
Of I and II , whose reported AC50 is the larger number? State the label of the item chosen.
II
(II: 113 nM, I: 13.2 nM)
